assay: Confirmation of temperature responsive property of ionic liquid (lower critical solution temperature by absorbance at 450 nm); format: physicochemical; conditions: ionic liquid-water sample; absorbance 450 nm; UV1650PC; heating 20° C.→95° C. (0.5° C./minute); initial waiting 10 minutes
QUANTITY NAME: LCST (lower critical solution temperature) (°C)
Entry rule: numbers only, all in °C.

Here is how some compounds turned out for LCST (lower critical solution temperature).
QUERY: // query LCST (lower critical solution temperature) value for entry CCCC[P+](CCCC)(CCCC)CCCC.O=C([O-])c1ccc(C(F)(F)F)cc1O [Synthesis Example 1-sample]
RESULT: 23.6

QUERY: // query LCST (lower critical solution temperature) value for entry CCCC[P+](CCCC)(CCCC)CCCC.Cc1ccc(S(=O)(=O)[O-])cc1 [Synthesis Example 16-sample, tetrabutylphosphonium p-toluenesulfonate]
RESULT: 54.6

Next up:
QUERY: // query LCST (lower critical solution temperature) value for entry CCCC[P+](CCCC)(CCCC)CCCC.O=S(=O)([O-])c1ccc(Cl)cc1 [Synthesis Example 12-sample]
RESULT: 25.6
